- target-or-test-system: Brd2(1)*(Leu110-Ala) (Homo sapiens, UniProt P25440, L110A)
- Sequence (P25440 74-180 L110A limits assumed): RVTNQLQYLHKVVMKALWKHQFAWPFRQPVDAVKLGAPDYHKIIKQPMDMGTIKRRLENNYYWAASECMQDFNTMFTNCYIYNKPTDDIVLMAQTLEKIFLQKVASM
- test-summary: DSF thermal shift
- Format: binding
- Design: Plasmids of the eight single BET bromodomain constructs Brd2(1), Brd2(2), Brd3(1), Brd3(2); His6 (N); made in house; host or cells: E. coli BL21(DE3)
- experimental-context: mutant
Listed here: items and their measured ΔTm Brd2(1)*(Leu110-Ala).
# number only, unit K dropped from output

# compound, metric-name, quantity-unit, reported-measurement
records = [
    ("COC(=O)CC1(C)N=C(c2ccc(Cl)cc2)c2cc(OC)ccc2-n2c(C)nnc21 (racemic)", "ΔTm Brd2(1)*(Leu110-Ala)", "K", 2.9),
    ("COC(=O)[C@@H](CC1CC1)[C@@H]1N=C(c2ccc(Cl)cc2)c2cc(OC)ccc2-n2c(C)nnc21 (racemic)", "ΔTm Brd2(1)*(Leu110-Ala)", "K", 1.6),
]

In: What value of ΔTm Brd2(1)*(Leu110-Ala) has been reported for the following compound? CC[C@H](C(=O)OC)[C@@H]1N=C(c2ccc(Cl)cc2)c2cc(OC)ccc2-n2c(C)nnc21 (racemic)
Out: 1.8

In: What value of ΔTm Brd2(1)*(Leu110-Ala) has been reported for the following compound? COC(=O)[C@H](C)[C@@H]1N=C(c2ccc(Cl)cc2)c2cc(OC)ccc2-n2c(C)nnc21 (racemic)
Out: 7.9

In: What value of ΔTm Brd2(1)*(Leu110-Ala) has been reported for the following compound? CCC[C@H](C(=O)OC)[C@@H]1N=C(c2ccc(Cl)cc2)c2cc(OC)ccc2-n2c(C)nnc21 (racemic)
Out: 0.9

In: What value of ΔTm Brd2(1)*(Leu110-Ala) has been reported for the following compound? CCC[C@@H](C(=O)OC)[C@@H]1N=C(c2ccc(Cl)cc2)c2cc(OC)ccc2-n2c(C)nnc21 (racemic)
Out: 4.0

====

- target-or-test-system: Brd2(1) (Homo sapiens)
- Construct: Plasmids of the eight single BET bromodomain constructs Brd2(1), Brd2(2), Brd3(1), Brd3(2); His6 (N); made in house; host or cells: E. coli BL21(DE3)
- Sequence (P25440 74-180 limits assumed): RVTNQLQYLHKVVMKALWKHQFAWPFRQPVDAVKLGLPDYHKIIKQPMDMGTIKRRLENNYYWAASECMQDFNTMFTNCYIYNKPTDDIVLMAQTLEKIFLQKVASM
- test-summary: DSF thermal shift
- Format: binding
- experimental-context: wild type
metric-name: ΔTm Brd2(1) (K)
# number only, unit K dropped from output

The examples below pair each entry with its known result.
# compound, quantity-unit, ΔTm Brd2(1)
records = [
    ("CC[C@H](C(=O)OC)[C@@H]1N=C(c2ccc(Cl)cc2)c2cc(OC)ccc2-n2c(C)nnc21 (racemic)", "K", 1.0),
    ("CC[C@@H](C(=O)OC)[C@@H]1N=C(c2ccc(Cl)cc2)c2cc(OC)ccc2-n2c(C)nnc21 (racemic)", "K", 1.2),
    ("CCC[C@H](C(=O)OC)[C@@H]1N=C(c2ccc(Cl)cc2)c2cc(OC)ccc2-n2c(C)nnc21 (racemic)", "K", 0.1),
]

In: What value of ΔTm Brd2(1) has been reported for the following compound? COC(=O)CC1N=C(c2cc(C)ccc2C)c2cc(OC)ccc2-n2c(C)nnc21 (racemic)
Out: 1.8

In: What value of ΔTm Brd2(1) has been reported for the following compound? Cc1cc(C)c(S(=O)(=O)Nc2ccc3c(c2)CN(C)C(=O)N3)c(C)c1
Out: 0.7

In: What value of ΔTm Brd2(1) has been reported for the following compound? CN1Cc2cc(NS(=O)(=O)c3ccc(-c4ccccc4)cc3)ccc2NC1=O
Out: 0.5

In: What value of ΔTm Brd2(1) has been reported for the following compound? Cc1cccc(S(=O)(=O)Nc2ccc3c(c2)CN(C)C(=O)N3)c1
Out: 0.0

====

- target-or-test-system: Brd2(1) (Homo sapiens)
- Construct: Plasmids of the eight single BET bromodomain constructs Brd2(1), Brd2(2), Brd3(1), Brd3(2); His6 (N); made in house; host or cells: E. coli BL21(DE3)
- test-summary: ITC reverse titration of protein into compound
- Assay type: binding
- experimental-context: ITC 25° C.; read-out: Kd wild type Brd2(1)
metric-name: Kd

In: What value of Kd has been reported for the following compound? COc1ccc(OC)c(S(=O)(=O)Nc2ccc3c(c2)CN(C)C(=O)N3)c1 [Compound 51]
Out: ~3.2 µM

====

- target-or-test-system: brd4(2)L387A (Homo sapiens, UniProt O60885, L387A)
- Construct: Plasmids of the eight single BET bromodomain constructs Brd2(1), Brd2(2), Brd3(1), Brd3(2), Brd4(1), Brd4(2), Brdt(1) and Brdt(2); His6 (N); made in house; host or cells: E. coli BL21(DE3)
- test-summary: DSF thermal shift
- Type: binding
- experimental-context: mutant
metric-name: ΔTm Brd4(2)* (L387A) (K)
# number only, unit K dropped from output

The examples below pair each entry with its known result.
# compound, ΔTm Brd4(2)* (L387A) (K)
rows = [
    ("COC(=O)[C@@H](CC1CC1)[C@@H]1N=C(c2ccc(Cl)cc2)c2cc(OC)ccc2-n2c(C)nnc21 (racemic)", 0.1),
    ("CCC[C@@H](C(=O)OC)[C@@H]1N=C(c2ccc(Cl)cc2)c2cc(OC)ccc2-n2c(C)nnc21 (racemic)", 6.7),
]

As a next step, examine the compound that follows.
In: What is its ΔTm Brd4(2)* (L387A) for brd4(2)L387A (Homo sapiens, UniProt O60885, L387A)? Entry: COC(=O)[C@H](CC1CC1)[C@@H]1N=C(c2ccc(Cl)cc2)c2cc(OC)ccc2-n2c(C)nnc21 (racemic)
Out: 5.8

====

- target-or-test-system: Brd2(2)*(Met438-Leu) (Homo sapiens, UniProt P25440, M438L)
- Construct: Plasmids of the eight single BET bromodomain constructs Brd2(1), Brd2(2), Brd3(1), Brd3(2); His6 (N); made in house; host or cells: E. coli BL21(DE3)
- Sequence (P25440 344-453 M438L limits assumed): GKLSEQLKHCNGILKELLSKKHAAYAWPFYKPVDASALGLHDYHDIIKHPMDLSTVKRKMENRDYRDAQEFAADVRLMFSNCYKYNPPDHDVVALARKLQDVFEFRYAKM
- test-summary: DSF thermal shift
- Format: binding
- experimental-context: mutant
Listed here: items and their measured ΔTm Brd2(2)*(Met165-Leu).
# number only, unit K dropped from output

The examples below pair each entry with its known result.
# structure-smiles, target-or-test-system, quantity-unit, reported-measurement
records = [
    ("COc1ccc(OC)c(S(=O)(=O)Nc2ccc3c(c2)CN(C)C(=O)N3)c1", "Brd2(2)*(Met438-Leu) (Homo sapiens, UniProt P25440, M438L)", "K", 5.2),
    ("CN1Cc2cc(NS(=O)(=O)c3ccc(C(C)(C)C)cc3)ccc2NC1=O", "Brd2(2)*(Met438-Leu) (Homo sapiens, UniProt P25440, M438L)", "K", 0.3),
]

As a next step, examine the compound that follows.
In: What is its ΔTm Brd2(2)*(Met165-Leu) for Brd2(2)*(Met438-Leu) (Homo sapiens, UniProt P25440, M438L)? Entry: CN1Cc2cc(NS(=O)(=O)c3ccc(-c4ccccc4)cc3)ccc2NC1=O
Out: 0.0
